Give measured inhibition for each item. Keep answers brief.
- Subject of test: Tyrosine-protein kinase ZAP-70 (Homo sapiens) (UniProt P43403)
- Sequence (P43403 whole entry): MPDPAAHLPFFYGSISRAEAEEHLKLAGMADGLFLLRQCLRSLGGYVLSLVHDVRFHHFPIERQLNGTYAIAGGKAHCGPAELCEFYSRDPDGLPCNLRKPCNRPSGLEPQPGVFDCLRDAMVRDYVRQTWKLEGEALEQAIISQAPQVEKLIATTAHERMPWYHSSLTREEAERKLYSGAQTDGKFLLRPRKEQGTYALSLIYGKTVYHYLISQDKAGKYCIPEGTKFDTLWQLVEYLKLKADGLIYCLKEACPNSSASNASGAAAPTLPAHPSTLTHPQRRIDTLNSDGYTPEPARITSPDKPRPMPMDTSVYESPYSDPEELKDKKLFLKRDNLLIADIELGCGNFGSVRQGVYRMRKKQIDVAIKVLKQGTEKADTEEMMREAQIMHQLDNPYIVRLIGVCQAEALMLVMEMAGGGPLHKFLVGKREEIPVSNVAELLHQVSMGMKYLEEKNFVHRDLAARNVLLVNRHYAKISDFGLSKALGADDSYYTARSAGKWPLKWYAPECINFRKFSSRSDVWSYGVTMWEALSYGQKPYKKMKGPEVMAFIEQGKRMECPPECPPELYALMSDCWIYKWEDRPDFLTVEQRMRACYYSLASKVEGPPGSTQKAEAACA
- Measurement parameters: at 0.1 µM
Respond numerically; units are % and should not be typed.

The molecule Cc1ccc2c(c1)/C(=N/Nc1ccc(S(N)(=O)=O)cc1)C(=O)N2 on Tyrosine-protein kinase ZAP-70 (Homo sapiens) (UniProt P43403): inhibition was 1.31

The molecule Nc1nccc(-c2c(-c3ccc(F)cc3)ncn2CCCN2CCOCC2)n1 on Tyrosine-protein kinase ZAP-70 (Homo sapiens) (UniProt P43403): inhibition was -2.08

The molecule NC(=O)c1cccc(Nc2nccc(Nc3cccc(F)c3)n2)c1 on Tyrosine-protein kinase ZAP-70 (Homo sapiens) (UniProt P43403): inhibition was -0.99

The molecule Cc1ccc(O)cc1Nc1ccnc2ccc(S(C)(=O)=O)cc12 on Tyrosine-protein kinase ZAP-70 (Homo sapiens) (UniProt P43403): inhibition was 2.4

The molecule COC(=O)c1ccc2c(c1)C(=Cc1cc(Br)c(O)c(Br)c1)C(=O)N2 on Tyrosine-protein kinase ZAP-70 (Homo sapiens) (UniProt P43403): inhibition was 3.31

The molecule COc1cc2ncnc(Nc3ccc(C)c(O)c3)c2cc1OC on Tyrosine-protein kinase ZAP-70 (Homo sapiens) (UniProt P43403): inhibition was 3.61

The molecule C[C@@H](Oc1cc(-n2cnc3ccc(OC[C@@H](O)CO)cc32)sc1C(N)=O)c1ccccc1Cl on Tyrosine-protein kinase ZAP-70 (Homo sapiens) (UniProt P43403): inhibition was -0.38

The molecule Cc1cc(Cl)cc2c1NC(=O)C2=NNc1ccc(S(N)(=O)=O)cc1 on Tyrosine-protein kinase ZAP-70 (Homo sapiens) (UniProt P43403): inhibition was 1.82

The molecule COc1ccc2ncnc(Nc3ccc(OCc4ccccc4)cc3)c2c1 on Tyrosine-protein kinase ZAP-70 (Homo sapiens) (UniProt P43403): inhibition was 1.97

The molecule CCS(=O)(=O)c1ccc(OC)c(Nc2ncc(-c3cccc(OC)c3)o2)c1 on Tyrosine-protein kinase ZAP-70 (Homo sapiens) (UniProt P43403): inhibition was -1.53

The molecule NS(=O)(=O)c1ccc(-c2cc3ccncc3cc2OCc2ccccc2)cc1 on Tyrosine-protein kinase ZAP-70 (Homo sapiens) (UniProt P43403): inhibition was 0.37

* * *

- Subject of test: Tyrosine-protein kinase CSK (Homo sapiens) (UniProt P41240)
- Sequence (P41240 2-450 limits assumed): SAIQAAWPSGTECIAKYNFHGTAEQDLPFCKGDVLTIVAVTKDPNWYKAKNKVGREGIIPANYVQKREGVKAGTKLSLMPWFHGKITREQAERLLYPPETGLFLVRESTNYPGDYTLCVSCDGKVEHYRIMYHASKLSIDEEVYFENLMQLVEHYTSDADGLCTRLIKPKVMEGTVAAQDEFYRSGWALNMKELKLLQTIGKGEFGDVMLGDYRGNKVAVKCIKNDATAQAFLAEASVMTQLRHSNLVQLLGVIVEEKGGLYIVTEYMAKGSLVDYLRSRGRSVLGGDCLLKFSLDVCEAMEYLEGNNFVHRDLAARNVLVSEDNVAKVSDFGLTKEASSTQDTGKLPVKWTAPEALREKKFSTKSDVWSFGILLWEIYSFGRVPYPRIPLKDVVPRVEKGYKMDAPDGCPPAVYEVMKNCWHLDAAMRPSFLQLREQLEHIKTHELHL
- Measurement parameters: at 1 µM
Readout: inhibition (%)
Respond numerically; units are % and should not be typed.

Reported inhibition of NS(=O)(=O)c1ccc(Nc2cc(-c3cccc(O)c3)n[nH]2)cc1 : 5.32

Reported inhibition of FC(F)(F)c1ccc(-c2nn3ncccc3c2-c2ccnc(Nc3ccc4c(c3)OCCO4)n2)cc1 : 6.46

Reported inhibition of CN(c1ccc(NC(=O)Nc2ccc(OC(F)(F)F)cc2)cc1)c1ccnc(Nc2cccc(S(N)(=O)=O)c2)n1 : 29.4

Reported inhibition of N#Cc1cccc(Nc2nccc(-c3cnn4ncccc34)n2)c1 : 13.4

Reported inhibition of CCCN1CCCC(c2ccc(Nc3nc(Nc4cc(F)ccc4C(N)=O)c4cc[nH]c4n3)c(OC)c2)C1 (stereo not given) : 4.58

Reported inhibition of Cc1cc(O)cc(C)c1/C=C/c1cncc(C(=O)N(C)C)c1 : 7.46

Reported inhibition of COc1cccc(-n2ncc3c(N/N=C/c4ccc(C)cc4)ncnc32)c1 : 8.35

Reported inhibition of COc1cc2ncnc(Nc3ccc(C)c(O)c3)c2cc1OC : 16.8

Reported inhibition of Cc1cc(Cl)cc2c1NC(=O)C2=NNc1ccc(S(N)(=O)=O)cc1 : 3.65

Reported inhibition of O=S(=O)(CCOCc1ccc(-c2ccc3ncnc(Nc4ccc(OCc5cccc(F)c5)c(Cl)c4)c3c2)o1)c1ccccc1 : 1.36
